# TEST_SYSTEM: recombinant HSF1 DNA-binding domain (DBD) (Homo sapiens, UniProt Q00613)
# TEST_DETAILS: Differential Scanning Fluorimetry (DSF), HSF1 DBD melting temperature
# CONDITION_PARAMETERS: Table 3; 5 μM HSF1 DBD, 25PM Compound; positive = stabilizes, negative = destabilizes HSF1
PROPERTY_LABEL: ΔTm at 25 µM (°C)

Examples with answers:
// ΔTm at 25 µM value for N#Cc1cc(NC(=O)Nc2ccc(F)cc2)ccc1Cl : 2

Record summary for Cc1ccc(NC(=O)Nc2cccc(C(F)(F)F)c2)cc1 : reported ΔTm at 25 µM = 2.58

A. N#Cc1ccc(NC(=O)Nc2ccc(Cl)c(S(=O)(=O)C(F)(F)F)c2)c(OCCN2CCOCC2)c1
B. O=C(Nc1ccc(F)cc1)Nc1cccc(C(F)(F)F)c1
Exam item: Problem: Given the entries A and B , determine which has the lower reported ΔTm at 25 µM. # answer = label of selected item
Marked response: A
(A: 0.49 °C, B: 1.78 °C)

1. O=C(Nc1ccc(Cl)c([N+](=O)[O-])c1)Nc1ccc(F)cc1C1(C(F)(F)F)N=N1
2. Cc1cccc(NC(=O)Nc2cccc([N+](=O)[O-])c2)c1
3. N#CN=C(Nc1ccc(F)cc1)Nc1ccc(Cl)c([N+](=O)[O-])c1
Exam item: Please rank these molecules by ΔTm at 25 µM in descending order. List the labels, following the order given in the request.
Marked response: 2, 1, 3
(2: 4 °C, 1: 2.25 °C, 3: 0.75 °C)

P. N#Cc1ccc(NC(=O)Nc2ccc(Cl)c(S(=O)(=O)C(F)(F)F)c2)c(CCN2CCOCC2)c1
Q. O=C(Nc1ccc(F)c(F)c1)Nc1ccc(Cl)c([N+](=O)[O-])c1
Exam item: // returns P or Q , whichever has the lower ΔTm at 25 µM Answer = label.
Marked response: P

----------
# TEST_SYSTEM: recombinant HSF1 DNA-binding domain (DBD) (Homo sapiens, UniProt Q00613)
# Sequence (Q00613 15-120): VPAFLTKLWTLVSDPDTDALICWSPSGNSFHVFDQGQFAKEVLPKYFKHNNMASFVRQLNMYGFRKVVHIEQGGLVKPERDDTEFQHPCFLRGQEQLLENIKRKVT
# TEST_DETAILS: Differential Scanning Fluorimetry (DSF), HSF1 DBD melting temperature
# CONDITION_PARAMETERS: Table 3; 5 μM HSF1 DBD, 25PM Compound; positive = stabilizes, negative = destabilizes HSF1
PROPERTY_LABEL: ΔTm at 25 µM (°C)

Form field ΔTm at 25 µM, entry O=[N+]([O-])c1cc(NC2=NS(=O)(=O)N=C2Nc2ccc(F)cc2)ccc1Cl [Compound 080] : 1.6

For record N#Cc1ccc(NC(=O)Nc2ccc(Cl)c(S(=O)(=O)C(F)(F)F)c2)cc1CN1CCOCC1 [Compound 285] the listed ΔTm at 25 µM is -7.52

Lab note: measured ΔTm at 25 µM of N#Cc1ccc(NC(=O)Nc2ccc(OCCN3CCOCC3)c(S(=O)(=O)C(F)(F)F)c2)cc1 [Compound 294] was -9.02

P. N#Cc1ccc(NC(=O)Nc2ccc(Cl)c(S(=O)(=O)C(F)(F)F)c2)c(CN2CCOCC2)c1 [Compound 297]
Q. N=C(Nc1ccc(F)cc1)Nc1ccc(Cl)c(C(F)(F)F)c1 [Compound 032]
Exam item: For this pair, P and Q , which shows a numerically higher ΔTm at 25 µM? # reply format: chosen label
Marked response: P
(P: 2.08 °C, Q: 0.75 °C)

----------
# TEST_SYSTEM: recombinant HSF1 DNA-binding domain (DBD) (Homo sapiens, UniProt Q00613)
# TEST_DETAILS: Differential Scanning Fluorimetry (DSF), HSF1 DBD melting temperature
# CONDITION_PARAMETERS: Table 1; 5 μM HSF1 DBD, 25PM Compound; positive = stabilizes, negative = destabilizes HSF1
PROPERTY_LABEL: ΔTm at 25 µM (°C)

Guide cases for ΔTm at 25 µM, answers given:
Notebook: CCC(C(=O)C(C)C(O)C(C)CCc1ccc(C)c(O)c1C(=O)O)C1OC(CC)(C2CCC(O)(CC)C(C)O2)CC1C (stereo not shown) , ΔTm at 25 µM read as -5.96

# compound CCOc1ccc(S(=O)(=O)NCc2ccccn2)c2ccccc12 ; its ΔTm at 25 µM = -9.24

Short answer for Cc1ccc(NC(=O)Nc2ccc(Cl)cc2)cc1 : ΔTm at 25 µM was 2.28

ΔTm at 25 µM for Cc1ccc(C(=O)/C=C(\c2ccccc2)N2CCCCC2)cc1 is -6.24

Record O=C(Nc1ccc(S(=O)(=O)N2CCCCC2)cc1)c1cccc(Cl)c1 . Reported ΔTm at 25 µM: 3.43

Lookup result for CCOC(=O)CCc1ccc(Oc2c([N+](=O)[O-])cc(C(F)(F)F)cc2[N+](=O)[O-])cc1 ; measured ΔTm at 25 µM: 3.39

Per the record, CC(NC(=O)CSc1nnc(-c2ccccc2O)n1-c1ccccc1)c1ccccc1 (stereo not shown) has ΔTm at 25 µM of -11

Notebook: O=[N+]([O-])c1cc(C(F)(F)F)cc([N+](=O)[O-])c1O/N=C1\CSCc2ccccc21 , ΔTm at 25 µM read as -4.56

A. CCN1C(=O)/C(=C\c2cc([N+](=O)[O-])cc(Br)c2O)SC1=S
B. O=C(Nc1ccc(Cl)c([N+](=O)[O-])c1)Nc1ccc(F)c(C2(C(F)(F)F)N=N2)c1
C. Cc1ccc(CNC(=O)CSc2nnc(-c3ccccc3)n2-c2ccc(C)c(C)c2)cc1
Exam item: Please put the entries in order of rising ΔTm at 25 µM. Answer with the labels in sequence, matching the requested order.
Marked response: C, A, B

a. O=C(Nc1ccc(Cl)cc1)Nc1ccc(Cl)c([N+](=O)[O-])c1
b. Cn1ncc(S(=O)(=O)Cc2ccccc2)c(Cl)c1=O
c. O=C(Nc1ccc(F)cc1)Nc1ccc(Cl)c(O)c1
Exam item: Could you please order the items by ΔTm at 25 µM, going from the lowest number to the highest? Reply format: the labels, ordered as requested.
Marked response: b, a, c

----------
# TEST_SYSTEM: purified recombinant human HSF1 (HSF1 DNA binding domain) (Homo sapiens, UniProt Q00613)
# Sequence (Q00613 15-120): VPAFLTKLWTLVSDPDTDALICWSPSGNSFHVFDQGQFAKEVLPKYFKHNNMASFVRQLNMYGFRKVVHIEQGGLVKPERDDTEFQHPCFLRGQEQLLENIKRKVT
# TEST_DETAILS: Melting temperature of HSF1 DBD with HSF1 degrader compounds (Sypro orange)
# CONDITION_PARAMETERS: 12.5 micromolar compound, 5 micromolar HSF1 DBD, compared to DMSO; read-out: ΔTm (° C.)
PROPERTY_LABEL: ΔTm at 12.5 µM (°C)

Illustrative cases are given below, each with its answer.
ΔTm at 12.5 µM on purified recombinant human HSF1 (HSF1 DNA binding domain) (Homo sapiens, UniProt Q00613) for N#Cc1ccc(NC(=O)Nc2ccc(Cl)c(S(=O)(=O)C(F)(F)F)c2)c(CN2CCOCC2)c1 is 1.1

Entry N#Cc1ccc(NC(=O)Nc2ccc(Cl)c(C(F)(F)F)c2)cc1 ; assay system purified recombinant human HSF1 (HSF1 DNA binding domain) (Homo sapiens, UniProt Q00613); ΔTm at 12.5 µM recorded at 2.62

Field ΔTm at 12.5 µM (purified recombinant human HSF1 (HSF1 DNA binding domain) (Homo sapiens, UniProt Q00613)), entry N#Cc1ccc(NC(=O)Nc2ccc(Cl)c(C(F)(F)F)c2)cc1C(F)(F)F : 2.26

Short answer on purified recombinant human HSF1 (HSF1 DNA binding domain) (Homo sapiens, UniProt Q00613) for N#Cc1ccc(NC(=O)Nc2ccc(Cl)c(S(=O)(=O)C(F)(F)F)c2)cc1 , ΔTm at 12.5 µM: 1.77

Simply: O=C(Nc1ccc(F)cc1)Nc1ccc(Cl)c([N+](=O)[O-])c1 , purified recombinant human HSF1 (HSF1 DNA binding domain) (Homo sapiens, UniProt Q00613), ΔTm at 12.5 µM = 3.69

Given the molecule COc1cc(NC(=O)Nc2ccc(Cl)c(C(F)(F)F)c2)ccc1C#N and test system purified recombinant human HSF1 (HSF1 DNA binding domain) (Homo sapiens, UniProt Q00613), the measured ΔTm at 12.5 µM is 2.8

1. N#Cc1ccc(NC(=O)Nc2ccc3c(c2)S(=O)(=O)C=C3)cc1
2. N#Cc1ccc(NC(=O)Nc2ccc3c(c2)C(=O)CC3)cc1
3. N#Cc1ccc(NC(=O)Nc2cccc(C(F)(F)F)c2)cc1
Exam item: Rank descending by ΔTm at 12.5 µM. # list labels per requested ordering
Marked response: 1, 3, 2
(1: 2.11 °C, 3: 1.41 °C, 2: 0.1 °C)
